- systemTested: human MC3R (human, UniProt P41968 1-323)
- Sequence (P41968 whole entry): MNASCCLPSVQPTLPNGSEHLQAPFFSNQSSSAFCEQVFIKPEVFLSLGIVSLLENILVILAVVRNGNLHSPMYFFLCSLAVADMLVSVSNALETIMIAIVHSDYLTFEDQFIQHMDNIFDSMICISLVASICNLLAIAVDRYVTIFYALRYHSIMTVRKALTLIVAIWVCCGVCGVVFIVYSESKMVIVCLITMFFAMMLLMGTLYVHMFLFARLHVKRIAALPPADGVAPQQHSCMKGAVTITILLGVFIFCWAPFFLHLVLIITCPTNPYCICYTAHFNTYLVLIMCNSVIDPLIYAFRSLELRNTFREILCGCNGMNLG
- testSummary: cell-based or functional assay
Positions of bridges follow the written chain, without caps; N, C: chain ends. Non-standard residues stand in square brackets, D forms with d. Cit = NC(=O)NCCC[C@H](N)C(=O)O; Aib = CC(C)(N)C(=O)O
Field: cAMP EC50. Provide a value for each of the binders that follow.
One number for each entry, in µM.

Look over these answered cases.
binder	assayMetric	unitSymbol	measured
Ac-RC[Aib][Cit][dF]RWC-NH2 (disulfide 2-8) [CTX-1289]	cAMP EC50	µM	0.017
Ac-CG[Cit][dF]RFC-NH2 (disulfide 1-7; SMILES CC(=O)N[C@H]1CSSC[C@@H](C(N)=O)NC(=O)[C@H](Cc2ccccc2)NC(=O)[C@H](CCCNC(=N)N)NC(=O)[C@@H](Cc2ccccc2)NC(=O)[C@H](CCCNC(N)=O)NC(=O)CNC1=O) [CTX-1639]	cAMP EC50	µM	7.69
{CH2CO}-GR[dF]RFC-NH2 (thioether N-6; SMILES N=C(N)NCCC[C@@H]1NC(=O)CNC(=O)CSC[C@@H](C(N)=O)NC(=O)[C@H](Cc2ccccc2)NC(=O)[C@H](CCCNC(=N)N)NC(=O)[C@@H](Cc2ccccc2)NC1=O) [CTX-1654]	cAMP EC50	µM	5.89

Per the records, this binder ( Ac-RCA[Cit][dF]RWC-NH2 (disulfide 2-8) [CTX-1287] ) has cAMP EC50 equal to 0.05
